# target or test system: Estrogen receptor (Homo sapiens) (UniProt P03372)
# Sequence (P03372 whole entry, looked up): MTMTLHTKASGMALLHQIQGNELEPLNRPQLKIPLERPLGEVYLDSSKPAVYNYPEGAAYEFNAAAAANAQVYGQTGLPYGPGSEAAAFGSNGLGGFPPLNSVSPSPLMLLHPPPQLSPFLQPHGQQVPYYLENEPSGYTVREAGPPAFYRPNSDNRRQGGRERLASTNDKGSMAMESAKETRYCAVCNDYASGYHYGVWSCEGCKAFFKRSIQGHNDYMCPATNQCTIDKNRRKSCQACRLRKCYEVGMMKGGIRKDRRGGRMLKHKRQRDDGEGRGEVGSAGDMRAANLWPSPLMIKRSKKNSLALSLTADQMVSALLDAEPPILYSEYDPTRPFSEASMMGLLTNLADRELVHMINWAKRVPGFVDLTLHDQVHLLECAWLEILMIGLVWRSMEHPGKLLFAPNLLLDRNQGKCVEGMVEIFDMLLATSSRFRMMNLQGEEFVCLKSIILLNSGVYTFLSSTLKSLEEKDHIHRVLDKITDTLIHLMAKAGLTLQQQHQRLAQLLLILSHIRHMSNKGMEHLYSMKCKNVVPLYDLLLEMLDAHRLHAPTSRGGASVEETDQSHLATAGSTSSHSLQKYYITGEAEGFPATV
# assay text: qHTS assay to identify small molecule antagonists of the estrogen receptor alpha (ER-alpha) signaling pathway (AID 743069)
# test settings: HEK293 ER-alpha-UAS-bla, beta-lactamase ratio, antagonist mode; series mostly up to 69.4 µM
Inconclusive results are not listed. Calls of active or inactive are those of the source. Calls come from the whole dose curve; as a rule, active = well fitted curve in the direction sought with a large enough effect in the signal ratio in the repeat runs (not every such curve was filed as active); inconclusive = weak or mixed curves, or effect the other way; inactive = no such curve, though single readings can be large or run the other way; the % refers to the signal ratio.
measurement name: activity, negative = inhibition

INSERT INTO assay_data (given_smiles, measurement_name, endpoint_result) VALUES
  ('O=[N+]([O-])c1ccccc1C(F)(F)F', 'activity, negative = inhibition', 'inactive'),
  ('COCN(COC)c1nc(N(COC)COC)nc(N(COC)COC)n1', 'activity, negative = inhibition', 'inactive'),
  ('O=C1CCCCCCCCCCC1', 'activity, negative = inhibition', 'inactive');

----------
# assay text: qHTS assay for identifying genotoxic compounds that show differential cytotoxicity against isogenic chicken DT40 cell lines with known DNA damage response pathways - wild type cell line (AID 743012); note: nearly all actives have a fitted effect of over 60% in size
# test settings: DT40 wild type chicken cells viability, CellTiter-Glo, 40 h; series mostly up to 68.4 µM
Records with an inconclusive call do not appear. Activity calls are given as the source filed them. Calls come from the whole dose curve; as a rule, active = well fitted cell-killing curve with a large enough effect in the repeat runs; inconclusive = weak or mixed curves, or effect the other way; inactive = no such curve, though single readings can be large or run the other way.
measurement name: outcome

INSERT INTO results (compound, endpoint_result) VALUES
  ('CCCOC(=O)NCCCN(C)C', 'inactive'),
  ('Cc1nnc(NS(=O)(=O)c2ccc(N)cc2)s1', 'inactive'),
  ('CC(=O)OCc1ccc2c(c1)OCO2', 'inactive'),
  ('CCCCCCCCO', 'inactive'),
  ('CCc1cccc(CC)c1N', 'inactive'),
  ('COc1ccccc1[N+](=O)[O-]', 'inactive'),
  ('CC/C(C)=N/O', 'inactive'),
  ('O=C1C(N(CO)C(=O)NCO)N(CO)C(=O)N1CO (stereo not drawn)', 'inactive'),
  ('Cc1ccccc1Cl', 'inactive'),
  ('CN1Cc2c(N)cccc2C(c2ccccc2)C1 (stereo not drawn)', 'inactive'),
  ('CC(C)c1ccc(C(C)C)cc1', 'inactive'),
  ('CC1(C)[C@@H](O[C@H]2O[C@H](C(=O)O)[C@@H](O)[C@H](O)[C@H]2O[C@@H]2O[C@H](C(=O)O)[C@@H](O)[C@H](O)[C@H]2O)CC[C@]2(C)[C@H]3C(=O)C=C4[C@@H]5C[C@@](C)(C(=O)O)CC[C@]5(C)CC[C@@]4(C)[C@]3(C)CC[C@@H]12', 'inactive'),
  ('C=CC(C)(C)C', 'inactive');

----------
# target or test system: Cytochrome P450 2C9 (Homo sapiens)
# assay text: Cytochrome P450 Family 2 Subfamily C Member 9 (CYP2C9) small molecule antagonists: luciferase reporter qHTS assay (AID 1671198); note: nearly all actives have a fitted effect of over 50% in size; note: potency is the fitted concentration of half-maximal effect
# test settings: P450-Glo CYP2C9 enzyme assay, luciferin luminescence; series mostly up to 115 µM
Records with an inconclusive call do not appear. The source made the active and inactive calls. The call rests on the fitted dose curve; in most records, active means well fitted inhibition curve with a large enough effect in the repeat runs; inconclusive means weak or mixed curves; inactive means no such curve, though single readings can be large or run the other way.
measurement name: Potency

INSERT INTO measurements (compound, measurement_name, endpoint_result) VALUES
  ('COC(=O)/C=C\C(=O)OC', 'Potency', 'inactive'),
  ('O=C(NCC1CCCCN1)c1cc(OCC(F)(F)F)ccc1OCC(F)(F)F (stereo unspecified)', 'Potency', 'inactive'),
  ('Cc1cc(CC(=O)O)n(C)c1C(=O)c1ccc(Cl)cc1', 'Potency', 'inactive'),
  ('CC(C=O)Cc1ccc(C(C)(C)C)cc1 (stereo unspecified)', 'Potency', '56.4 µM (active)'),
  ('CS(=O)(=O)c1ccc(Cl)cc1', 'Potency', 'inactive'),
  ('OCc1ccc(Cl)cc1Cl', 'Potency', 'inactive');

----------
# target or test system: Luciferin 4-monooxygenase (Photinus pyralis)
# assay text: qHTS assay to identify small molecule inhibitors of firefly luciferase (AID 1224835); note: nearly all actives have a fitted effect of over 25% in size
# test settings: purified P. pyralis luciferase, luminescence inhibition; series mostly up to 115 µM
Inconclusive results are not listed. The source made the active and inactive calls. The call rests on the fitted dose curve; in most records, active means well fitted inhibition curve with a large enough effect in the repeat runs; inconclusive means weak or mixed curves; inactive means flat fitted curve, though single readings scatter.
Outcomes: active, inactive

INSERT INTO measurements (compound, class_name) VALUES
  ('CCc1cccc(O)c1', 'inactive'),
  ('CC/C(C)=N/O', 'inactive'),
  ('CC(=O)OCCC(C)C', 'inactive'),
  ('CCCCC(CC)COC(=O)c1ccc(C(=O)OCC(CC)CCCC)cc1 (stereo not drawn)', 'inactive'),
  ('CC/C=C(\C(=O)N[C@@H]1C(=O)N2C(C(=O)OCOC(=O)C(C)(C)C)=C(COC(N)=O)CS[C@H]12)c1csc(N)n1', 'inactive'),
  ('CCCCCNCCCCC', 'inactive'),
  ('Cc1cc(C)c(O)c(C)c1', 'inactive'),
  ('OB(O)O', 'inactive'),
  ('CCOC(=O)c1ccc(O)cc1', 'inactive'),
  ('CCCCCCC(=O)O', 'inactive'),
  ('O=c1c(O)c(-c2ccc(O)c(O)c2)oc2cc(O)cc(O)c12', 'active'),
  ('Cc1cccc(C)c1[N+](=O)[O-]', 'inactive'),
  ('Cc1ccc(Cl)cc1', 'inactive'),
  ('O=[N+]([O-])c1ccccc1C(F)(F)F', 'inactive'),
  ('CCCOCC(C)O (stereo not drawn)', 'inactive'),
  ('CCc1cccc(CC)c1N', 'inactive'),
  ('COC(=O)/C=C\C(=O)OC', 'inactive'),
  ('C[n+]1ccn(CCO)c1', 'inactive'),
  ('Cc1ccccc1C=O', 'inactive'),
  ('O=C1O[C@H]([C@H](O)CO)C(O)=C1O', 'inactive'),
  ('OC1CCCCC1', 'inactive'),
  ('Oc1ccc(Cc2ccccc2O)cc1', 'inactive'),
  ('CC(CN1c2ccccc2Sc2ccccc21)N(C)C (stereo not drawn)', 'inactive'),
  ('C=C1C[C@]23C[C@@]1(O)CC[C@H]2[C@@]12C=C[C@H](O)[C@@](C)(C(=O)O1)[C@H]2[C@@H]3C(=O)O', 'inactive'),
  ('NC(=O)c1ncn([C@@H]2O[C@H](CO)[C@@H](O)[C@H]2O)n1', 'inactive'),
  ('CN1Cc2c(N)cccc2C(c2ccccc2)C1 (stereo not drawn)', 'inactive'),
  ('CCCCCCCCO', 'inactive'),
  ('O=C1C(N(CO)C(=O)NCO)N(CO)C(=O)N1CO (stereo not drawn)', 'inactive'),
  ('CC(=O)CC(=O)N(C)C', 'inactive'),
  ('COc1ccccc1[N+](=O)[O-]', 'inactive'),
  ('CCCCCCCCCCCCCC(=O)O', 'active'),
  ('COC(=O)CCCCC(=O)OC', 'inactive'),
  ('CC(=O)Nc1ccc(CC(=O)O)cc1', 'inactive'),
  ('CCCCCCCCC(=O)O', 'inactive'),
  ('C=C(CC(=O)O)C(=O)O', 'inactive'),
  ('O=C(O)C1=NN(c2ccc(S(=O)(=O)O)cc2)C(=O)C1', 'inactive'),
  ('N#CCC(=O)O', 'inactive'),
  ('CN=C(NC#N)NCCSCc1nc[nH]c1C', 'inactive'),
  ('CC(=O)OC/C=C(\C)CCC=C(C)C', 'inactive'),
  ('COc1cc(NC(=O)CC(C)=O)c(OC)cc1Cl', 'inactive'),
  ('Brc1ccc(Oc2ccc(Br)cc2)cc1', 'inactive'),
  ('COc1c2ccoc2cc2oc(=O)ccc12', 'inactive'),
  ('Cc1ccc(C)c(S(=O)(=O)O)c1', 'inactive'),
  ('Cc1ccccc1Cl', 'inactive'),
  ('COc1c(Cl)ccc(Cl)c1C(=O)O', 'inactive'),
  ('CC(=O)c1nccs1', 'inactive'),
  ('O=Cc1ccc(CO)o1', 'inactive'),
  ('Cc1ncc(CO)c(CO)c1O', 'inactive'),
  ('O=C(O)Cc1c[nH]c2ccccc12', 'inactive'),
  ('Nc1cccc(C(F)(F)F)c1', 'inactive'),
  ('CCN(CC)CCNC(=O)c1ccc(N)cc1', 'inactive'),
  ('CC(C)c1ccc(C(C)C)cc1', 'inactive'),
  ('CC(=O)OC(C)(C)C1CC=C(C)CC1 (stereo not drawn)', 'inactive'),
  ('CCOC(=O)CC(=O)OCC', 'inactive'),
  ('C=CC(=O)NCOCCCC', 'inactive'),
  ('CCCOC(=O)NCCCN(C)C', 'inactive'),
  ('Cc1ccncc1', 'inactive'),
  ('CC1(C)[C@@H](O[C@H]2O[C@H](C(=O)O)[C@@H](O)[C@H](O)[C@H]2O[C@@H]2O[C@H](C(=O)O)[C@@H](O)[C@H](O)[C@H]2O)CC[C@]2(C)[C@H]3C(=O)C=C4[C@@H]5C[C@@](C)(C(=O)O)CC[C@]5(C)CC[C@@]4(C)[C@]3(C)CC[C@@H]12', 'inactive');

----------
# target or test system: Nuclear receptor ROR-gamma (Homo sapiens) (UniProt P51449)
# assay text: qHTS assay to identify small molecule antagonists of the retinoid-related orphan receptor gamma (ROR-gamma) signaling pathway (AID 1159521;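 note: CHO cells with doxycycline inducible ROR-gamma driving an RORE luciferase reporter; top concentration of the series differs between compounds; nearly all actives have a fitted effect of over 50% in size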)
# test settings: Tet-on RORgamma CHO cells, RORE-luciferase, 16 h; series mostly up to 92.4 µM
Results filed as inconclusive are left out. Activity calls are given as the source filed them. Calls follow the shape of the dose curve; as a rule, active = well fitted inhibition curve with a large enough effect in the repeat runs; inconclusive = weak or mixed curves, or effect the other way; inactive = no such curve, though single readings can be large or run the other way.
measurement name: outcome

INSERT INTO assay_data (compound, measurement_name, endpoint_result) VALUES
  ('NC1CCCCC1N (stereo not given)', 'outcome', 'inactive'),
  ('CC/C=C(\C(=O)N[C@@H]1C(=O)N2C(C(=O)OCOC(=O)C(C)(C)C)=C(COC(N)=O)CS[C@H]12)c1csc(N)n1', 'outcome', 'inactive'),
  ('CCCN(CCC)C(=O)SCC', 'outcome', 'inactive'),
  ('CCOC(=O)CC(=O)OCC', 'outcome', 'inactive'),
  ('CN1CCCC1=O', 'outcome', 'inactive'),
  ('CCCCCCCCCCCCCC(=O)O', 'outcome', 'inactive'),
  ('CCCCCNCCCCC', 'outcome', 'inactive'),
  ('Cc1ccc(C(C)C)cc1', 'outcome', 'inactive'),
  ('NC(N)=S', 'outcome', 'inactive'),
  ('Cc1nnc(NS(=O)(=O)c2ccc(N)cc2)s1', 'outcome', 'inactive'),
  ('OC[C@H]1O[C@@H](Oc2ccc(O)cc2)[C@H](O)[C@@H](O)[C@@H]1O', 'outcome', 'inactive'),
  ('NC(=O)NC(N)=O', 'outcome', 'inactive'),
  ('CS(=O)(=O)c1ccc(Cl)cc1', 'outcome', 'inactive'),
  ('OCC(CO)(CO)CO', 'outcome', 'inactive'),
  ('Cc1ncc(CO)c(CO)c1O', 'outcome', 'inactive');
